- Species on record: Rattus norvegicus
- ASSAY NAME: Ability to displace 50% of (+/-) ethylketocyclazocine (2.8) in rat brain homogenate
MEASURED QUANTITY: IC50 (nM)
Numbers only here, please. The scale is nM.

# input // query IC50 value for entry CC1C2Cc3ccc(O)cc3C1(C)CCN2CCc1ccccc1 (stereo unspecified)
# output 65

====

- EXPERIMENTAL SYSTEM: Mu-type opioid receptor (Cavia porcellus)
- Sequence (P97266 whole entry): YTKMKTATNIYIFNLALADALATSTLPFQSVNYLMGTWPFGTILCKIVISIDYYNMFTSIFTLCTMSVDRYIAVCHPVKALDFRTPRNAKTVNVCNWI
MEASURED QUANTITY: IC50 (nM)
Report the figure in nM without appending any unit label.

# input // map CC1C2Cc3ccc(O)cc3C1(C)CCN2CCc1ccccc1 (stereo unspecified) to recorded IC50 (system: Mu-type opioid receptor (Cavia porcellus))
# output 9.8
